Reported EC50 values for a set of compounds
# STUDY TARGET: UniProt P31424
# Sequence (P31424 21-1171 isoform P31424-2 limits assumed): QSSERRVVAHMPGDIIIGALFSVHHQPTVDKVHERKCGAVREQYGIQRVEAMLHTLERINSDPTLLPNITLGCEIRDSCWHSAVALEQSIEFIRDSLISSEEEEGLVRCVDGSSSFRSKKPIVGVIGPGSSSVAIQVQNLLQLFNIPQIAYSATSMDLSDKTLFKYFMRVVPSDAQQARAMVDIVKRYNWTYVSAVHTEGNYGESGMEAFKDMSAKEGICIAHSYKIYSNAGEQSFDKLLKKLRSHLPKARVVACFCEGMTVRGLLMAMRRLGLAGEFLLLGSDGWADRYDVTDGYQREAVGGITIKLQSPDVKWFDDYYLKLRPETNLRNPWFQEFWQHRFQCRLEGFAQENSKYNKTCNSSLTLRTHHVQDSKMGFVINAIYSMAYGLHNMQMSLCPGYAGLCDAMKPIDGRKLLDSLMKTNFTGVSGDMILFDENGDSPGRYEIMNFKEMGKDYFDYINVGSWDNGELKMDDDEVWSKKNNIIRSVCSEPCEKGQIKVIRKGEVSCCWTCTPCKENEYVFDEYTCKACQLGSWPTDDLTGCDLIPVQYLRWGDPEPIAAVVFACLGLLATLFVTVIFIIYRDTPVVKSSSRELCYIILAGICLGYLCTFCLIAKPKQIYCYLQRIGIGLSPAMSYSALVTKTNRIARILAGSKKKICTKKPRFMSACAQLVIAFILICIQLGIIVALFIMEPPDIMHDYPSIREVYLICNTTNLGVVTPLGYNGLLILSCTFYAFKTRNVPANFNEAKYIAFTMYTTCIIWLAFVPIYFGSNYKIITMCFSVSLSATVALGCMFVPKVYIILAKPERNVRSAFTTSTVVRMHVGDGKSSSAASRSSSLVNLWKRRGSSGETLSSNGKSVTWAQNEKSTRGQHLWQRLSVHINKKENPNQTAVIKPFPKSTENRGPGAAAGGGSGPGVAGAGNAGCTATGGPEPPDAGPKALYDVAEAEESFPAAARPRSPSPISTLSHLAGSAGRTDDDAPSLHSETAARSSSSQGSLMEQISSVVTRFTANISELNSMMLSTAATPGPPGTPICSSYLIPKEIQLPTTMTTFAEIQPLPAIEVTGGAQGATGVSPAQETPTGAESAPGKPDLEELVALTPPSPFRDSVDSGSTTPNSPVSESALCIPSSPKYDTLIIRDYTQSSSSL
# TEST PROTOCOL: mGluR5 assay on HEK-expressing rat mGluR5 (fluorescent cell based Ca2+ mobilization assay)
# TEST CONTEXT: HEK-293 cells stably expressing rat mGluR5; no co-addition of glutamate; mean of at least three independent experiments in duplicate; read-out: Ca++ Flux (mean EC50)

Observe how each entry below is paired with its result.
CNc1ccccc1C(=O)N1CCC[C@H](c2nc(-c3ccc(F)cc3)no2)C1 [Example 49] | 1 to 10 µM
Cc1ncc(-c2noc([C@H]3CCCN(C(=O)c4ccc(F)c(F)c4)C3)n2)s1 [Example 75] | 1 to 10 µM
COCc1oncc1C(=O)N1CCC[C@H](c2nc(-c3ccc(F)cc3)no2)C1 [Example 47] | 1 to 10 µM

Here's the next entry for you.
query: State its EC50 on UniProt P31424: O=C(c1ccc(F)cc1)N1CCC[C@H](c2nc(-c3ccco3)no2)C1 [Example 35]
result: 1 to 10 µM
